# target or system: MCH-5 (Homo sapiens)
# Sequence (Q14790 217-374 limits assumed, species assumed): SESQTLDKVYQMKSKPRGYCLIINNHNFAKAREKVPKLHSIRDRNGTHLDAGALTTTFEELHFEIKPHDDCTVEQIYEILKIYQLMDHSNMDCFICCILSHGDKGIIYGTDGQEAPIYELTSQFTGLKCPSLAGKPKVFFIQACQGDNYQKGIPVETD
# Sequence (Q14790 385-479 limits assumed, species assumed): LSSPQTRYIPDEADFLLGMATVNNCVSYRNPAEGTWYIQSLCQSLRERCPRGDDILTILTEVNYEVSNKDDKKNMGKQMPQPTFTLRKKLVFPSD
# protocol summary: Fluorescence enzyme assay, IC50 determination, Mch5
# Assay type: biochemical
# settings: Table 3; method of Preparation 3A; read-out: MCH5 I50
recorded metric: IC50 (µM)
Answers are plain numbers, in µM.

Look over these answered cases.
CC(C)C[C@H](NC(=O)CCc1cccc2ccccc12)C(=O)N[C@H](C=O)CC(=O)O [Example 11] = 12.2
CC(C)C[C@H](NC(=O)COc1c(Cl)cc(Cl)c2ccccc12)C(=O)N[C@H](C=O)CC(=O)O [Example 29] = 3.04
CC(C)C[C@H](NC(=O)CCC(=O)c1cccc2ccccc12)C(=O)N[C@H](C=O)CC(=O)O [Example 19] = 11.2
CC(C)C[C@H](NC(=O)C(C)Oc1cccc2ccccc12)C(=O)N[C@H](C=O)CC(=O)O (stereo partly shown) [Example 14] = 2.43

# map each compound to its IC50
1. CC(C)C[C@H](NC(=O)COc1cccc2cccnc12)C(=O)N[C@H](C=O)CC(=O)O [Example 34]
2. CC(C)C[C@H](NC(=O)COc1cccc(-c2ccccc2)c1)C(=O)N[C@H](C=O)CC(=O)O [Example 40]

OUTPUT:
2.24
3.86

Hi there! I need IC50 for each item below, if you can.
1. CC(C)C[C@H](NC(=O)CCOc1cccc2ccccc12)C(=O)N[C@H](C=O)CC(=O)O [Example 22]
2. CC(C)C[C@H](NC(=O)CCSc1cccc2ccccc12)C(=O)N[C@H](C=O)CC(=O)O [Example 24]
3. CC(C)C[C@H](NC(=O)COc1ccc(Cl)c2ccccc12)C(=O)N[C@H](C=O)CC(=O)O [Example 28]
4. CC(C)C[C@H](NC(=O)COc1cccc2cnccc12)C(=O)N[C@H](C=O)CC(=O)O [Example 33]
5. CC(C)C[C@H](NC(=O)CSc1cccc2ccccc12)C(=O)N[C@H](C=O)CC(=O)O [Example 16]
6. CC(C)C[C@H](NC(=O)COc1ccc2c(c1)CCCC2)C(=O)N[C@H](C=O)CC(=O)O [Example 52]
7. CC(C)C[C@H](NC(=O)COc1ccccc1Cc1ccccc1)C(=O)N[C@H](C=O)CC(=O)O [Example 42]

OUTPUT:
1. 9.81
2. 16.3
3. 1.69
4. 3.64
5. 7.42
6. 4.95
7. 6.05

Below are some compounds; for each one, tell me its IC50.
1. CC(C)C[C@H](NC(=O)COc1ccccc1-c1ccccc1)C(=O)N[C@H](C=O)CC(=O)O [Example 39]
2. COc1ccc(OCC(=O)N[C@@H](CC(C)C)C(=O)N[C@H](C=O)CC(=O)O)c2ccccc12 [Example 27]

OUTPUT:
[1.71, 1.45]

====

# target or system: MCH-3 (Homo sapiens, UniProt P55210)
# Sequence (P55210 24-198 limits assumed): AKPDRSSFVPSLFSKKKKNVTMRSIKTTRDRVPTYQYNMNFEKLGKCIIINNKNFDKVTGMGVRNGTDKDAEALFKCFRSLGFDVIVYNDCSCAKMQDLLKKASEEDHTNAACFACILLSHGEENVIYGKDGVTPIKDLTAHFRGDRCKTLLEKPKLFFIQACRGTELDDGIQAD
# Sequence (P55210 207-303 limits assumed): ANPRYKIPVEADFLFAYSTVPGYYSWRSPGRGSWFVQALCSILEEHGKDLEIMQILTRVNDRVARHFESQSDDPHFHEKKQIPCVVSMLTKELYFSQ
# protocol summary: Fluorescence enzyme assay, IC50 determination, Mch3
# Format: biochemical
# settings: Ac-DEVD-AMC substrate, 30 min preincubation, room temperature; read-out: MCH-3 IC50
pIC50: −log10 of the molar value. Where a SMILES comes first, the peptide text is derived from it. The star is where a group is joined. Cbz = O=C(OCc1ccccc1)*
Kindly supply the reported pIC50 values for the records listed here.

Example entries and their recorded answers appear below.
O=C[C@H](CC(=O)O)NC(=O)[C@@H]1CSC(c2ccccc2)N1C(=O)COc1cccc2ccccc12 (stereo partly drawn) [Example 179] = < 4.30
O=C[C@H](CC(=O)O)NC(=O)[C@@H]1Cc2ccccc2N1C(=O)COc1cccc2ccccc12 [Example 186] = < 4.30

Let us move to another entry and its pIC50.
INPUT: Reported pIC50, compound CC(C)[C@H](NC(=O)OCc1ccccc1)C(=O)N[C@@H](C)C(=O)N[C@H](C=O)CC(=O)O [reference, Cbz-ValAlaAsp-H, reference compound] (Cbz-Val-Ala-Asp-aldehyde) : ____
OUTPUT: < 5.00
